# TESTED_TARGET: REAP Off-Targets
# RUN_DESCRIPTION: REAP, nanobody-Fc on yeast-displayed human antigen library
REAP Off-Targets (number) values for the binders below.
Reply numerically in off-targets, unit not repeated.

Look at this binder and give its reported REAP Off-Targets (number). TNF_Nb105 (Fc fusion, Nanobody expressed as an Fc fusion protein (fused with human IgG1) in Expi293 cells; not shown: human IgG1 Fc; nanobodies expressed as Fc fusion from vector pCER243) QVQLQESGGGLVQAGGSLRLSCAASGTISVTYFMGWYRQAPGKERELVAGIGTGANTYYADSVKGRFTISRDNAKNTVYLQMNSLKPEDTAVYYCAAYIGAPVYGDGQSRNKAKVYDYWGQGTQVTVSS
2

Look at this binder and give its reported REAP Off-Targets (number). TNFRSF17_Nb2.23 (Fc fusion, Nanobody expressed as an Fc fusion protein (fused with human IgG1) in Expi293 cells; not shown: human IgG1 Fc; nanobodies expressed as Fc fusion from vector pCER243) QVQLQESGGGLVQAGGSLRLSCAASGYISRYDYMGWYRQAPGKERELVAAINSGASTYYADSVKGRFTISRDNAKNTVYLQMNSLKPEDTAVYYCAVRSWGLDDYAYWGQGTQVTVSS
2

Look at this binder and give its reported REAP Off-Targets (number). TNFSF18_Nb98 (Fc fusion, Nanobody expressed as an Fc fusion protein (fused with human IgG1) in Expi293 cells; not shown: human IgG1 Fc; nanobodies expressed as Fc fusion from vector pCER243) QVQLQESGGGLVQAGGSLRLSCAASGSIFYVIAMGWYRQAPGKERELVATITAGTNTYYADSVKGRFTISRDNAKNTVYLQMNSLKPEDTAVYYCAVYALQQDVYDRSHAYWGQGTQVTVSS
4

Look at this binder and give its reported REAP Off-Targets (number). TNFRSF17_Nb2.21 (Fc fusion, Nanobody expressed as an Fc fusion protein (fused with human IgG1) in Expi293 cells; not shown: human IgG1 Fc; nanobodies expressed as Fc fusion from vector pCER243) QVQLQESGGGLVQAGGSLRLSCAASGTIFQYDYMGWYRQAPGKEREFVAAIAYGGNTNYADSVKGRFTISRDNAKNTVYLQMNSLKPEDTAVYYCAAWSWRRSRAYWGQGTQVTVSS
5

Look at this binder and give its reported REAP Off-Targets (number). TNFSF18_Nb96 (Fc fusion, Nanobody expressed as an Fc fusion protein (fused with human IgG1) in Expi293 cells; not shown: human IgG1 Fc; nanobodies expressed as Fc fusion from vector pCER243) QVQLQESGGGLVQAGGSLRLSCAASGNISWVYWMGWYRQAPGKERELVAGIATGGSTNYADSVKGRFTISRDNAKNTVYLQMNSLKPEDTAVYYCAVVASNGSRFWYWGQGTQVTVSS
6
